- Tested on: COLO 205
- Assay Notes: NCI tumour cell line growth inhibition, 48 h
The source made the active and inactive calls. No stated cut-off is given here; in the data, active = GI50 up to about 1.1 µM and inactive = higher.
Respond only with the outcome that fits, drawn from true for active, false for inactive

See these solved cases before continuing.
1) C/C(=N/NC(=O)c1ccccc1O)c1ccc(/C(C)=N\NC(=O)c2ccccc2O)c2nc3cc(C)c(C)cc3nc12	false
2) CC1=C(C(=O)Nc2cccc(Cl)c2)C(c2ccc([N+](=O)[O-])cc2)C(C(=O)Nc2cccc(Cl)c2)=C(C)N1	false

Test call for this compound, please: CS(C)(=O)=N/C=C\C(=O)C(Cl)(Cl)Cl false

For COC(=O)C(C(=O)C(=O)Nc1c(Cl)cc([N+](=O)[O-])cc1Cl)c1nc2cc(C)c(C)cc2nc1O (stereo not given) , which call appears in the assay record? false

Hi team, can someone confirm the assay call for COc1ccc(CNc2nc3ccccc3nc2-c2cccs2)cc1 ? false

Recorded test call requested for COc1cc(C2c3cc4c(cc3OC(NCCc3ccccc3)C2C)OCO4)cc(OC)c1OC (stereo not given) true

Please let me know the test result on file for CN(C)c1ccc(/C=C(\NC(=O)c2ccccc2)C(=O)Nc2ccccc2C(=O)NCc2ccccc2)cc1 . false

* * *

GI50 values by entry
- System: CAKI-1
- Assay Notes: NCI tumour cell line growth inhibition, 48 h
Activity calls are given as the source filed them. Rule as the data show it: active = GI50 up to about 1.1 µM and inactive = higher.

1) CC(=O)Nc1ccc(C(O)/C(=N/N)c2nc3ccc(Cl)cc3nc2O)cc1 (configuration not stated)	> 100 µM (inactive)

Lab note: molecule Cc1cc(C)c2c(c1)C1=NCCN1C2(O)c1ccc(Cl)cc1 (configuration not stated) tested on CAKI-1; recorded GI50 was 15.1 µM (inactive)

Reported CAKI-1 GI50 for item CC(=O)/C=C/c1ccc(C)cc1 was > 100 µM (inactive)

Form field, GI50 with CAKI-1, item CCN(CC)CC1CN=C(N)O1 (configuration not stated) : > 100 µM (inactive)

Entry NNC(=S)N/N=C(/C(=O)Nc1cc(Cl)ccc1Cl)C1C(=O)Nc2ccccc2[S+]1[O-] (configuration not stated) : GI50 on CAKI-1 = > 100 µM (inactive)

CAKI-1 GI50 of O=C(O)CSc1nnc(COc2ccc(Cl)cc2)n1-c1ccccc1 is > 100 µM (inactive)

Let me check: COCCOc1nc(-c2ccccc2)nc2ccccc12 , system CAKI-1, measured GI50 is 34.7 µM (inactive)

Bench note, CAKI-1: entry NC1=CN(CCCO)C2=N/C(=C\c3ccco3)C(=O)N12 , its GI50 = > 100 µM (inactive)

* * *

GI50 values, listed per item
- Tested on: SNB-75
- Assay Notes: NCI tumour cell line growth inhibition, 48 h
The source made the active and inactive calls. No stated cut-off is given here; in the data, active = GI50 up to about 1.1 µM and inactive = higher.

1. CN(C(=O)c1ccccc1)C1CCCC(=O)CC1 (centres undefined)	> 100 µM (inactive)
2. C=C(C)C12CC(COC(=O)c3ccccc3)C34OC5(OC1C3C1OC1(CO)C(O)C1(O)C(OC(=O)c3ccccc3)C(C)C(C(C)CCCCCCC5O)C14)O2 (centres undefined)	> 82.8 µM (inactive)
3. OC(c1ccoc1)c1cc2ccccc2s1 (centres undefined)	> 10 µM (inactive)

Shifting focus to the compound that follows.
Sample C[C@@]1(c2ccccc2)O[C@@H]2C[C@H]3[C@@H]4CCC5=CC(=O)C=C[C@]5(C)[C@@]4(F)[C@@H](O)C[C@]3(C)[C@]2(C(=O)CO)O1 [AMCINAFIDE] ; GI50 observed: 26.9 µM (inactive)

* * *

Item-by-item account of GI50
- Tested on: Malme-3M
- Assay Notes: NCI tumour cell line growth inhibition, 48 h
Calls of active or inactive are those of the source. Rule as the data show it: active = GI50 up to about 1.1 µM and inactive = higher.

# count of solved cases: 5
1. O=C(O)CN1CCNCCN(CC(=O)O)CCNCC1	56.9 µM (inactive)
2. O=C(C(Cl)=C(N1CCCCC1)N1CCCCC1)C(Cl)Cl	> 100 µM (inactive)
3. C=C(CN(C)C)C1(c2ccccc2)CC2(CCCC2)C(=O)O1 (stereo not drawn)	14.7 µM (inactive)
4. Cc1cc(C)nc(NC(=S)Nc2ccccc2Cl)c1	> 100 µM (inactive)
5. COc1ccc(CNc2nc3ccccc3nc2-c2cccs2)cc1	50.1 µM (inactive)

// GI50 lookup, compound = NC1=CN(CCCO)C2=N/C(=C\c3ccco3)C(=O)N12 , result: > 100 µM (inactive)

Just so you know, measured GI50 for CCC(C)C(NC(=O)C(CCCCN)NC(=O)C(NC(=O)C(CCC(N)=O)NC(=O)C(CCCNC(=N)N)NC(C)=O)C(C)CC)C(=O)NC(Cc1c[nH]c2ccccc12)C(=O)NC(Cc1ccccc1)C(=O)NC(CCC(N)=O)C(=O)NC(CC(N)=O)C(=O)NC(CCCNC(=N)N)C(=O)NC(CCCNC(=N)N)C(=O)NC(CCSC)C(=O)NC(CCCCN)C(=O)NC(Cc1c[nH]c2ccccc12)C(=O)NC(CCCCN)C(=O)NC(CCCCN)C(N)=O (stereo not drawn) came out at 34.1 µM (inactive)

The reported GI50 of the compound C/C=C/C=N/N(C(=O)c1cc([N+](=O)[O-])cc([N+](=O)[O-])c1)C1=NN=C(c2ccccc2)C(c2ccccc2)N1 (stereo not drawn) was 25.6 µM (inactive)

According to the records, this compound Cc1ccc(/C=c2\cc3oc(=O)c4cccc(c4-3)c2=O)cc1 displays GI50 of > 100 µM (inactive)

GI50 for C1CC2=C(C1)C1=S(S2)SC2=C1CCC2 is > 100 µM (inactive)

* * *

- Tested on: HOP-92
- Assay Notes: NCI tumour cell line growth inhibition, 48 h
Calls of active or inactive are those of the source. Cut-off read from the data, not from the text of the source: active = GI50 up to about 1.1 µM and inactive = higher.
Measured Endpoint: GI50

1. COCCOc1nc(-c2ccccc2)nc2ccccc12	27.6 µM (inactive)
2. C/C(=N/O)c1sc(-c2nc(C)c(/C(C)=N\O)s2)nc1C	> 100 µM (inactive)
3. C=CCCCCn1c2ccccc2c2c(C)c3cnccc3c(C)c21	4.06 µM (inactive)
4. COc1cc(C2NCCC(c3ccccc3)(c3ccccc3)N2)cc(OC)c1OC (centres undefined)	3.52 µM (inactive)

Entry under test: Nc1ccc(C(=O)NN2C(=O)C(Cl)C2c2ccccc2O)cc1 (centres undefined) . Its GI50 was > 100 µM (inactive)

// GI50 lookup, compound = O=P(O)(O)CN1CCN(CP(=O)(O)O)CCN(CP(=O)(O)O)CCN(CP(=O)(O)O)CC1 , result: 38.3 µM (inactive)

Lab note: CC(O)C1(CNc2cc(Cl)nc(N)n2)CCCC1 (centres undefined) gave GI50 of 98.9 µM (inactive)

// O=C(C#Cc1cn(C2CC(O)C(CO)O2)c(=O)[nH]c1=O)c1ccccc1 (centres undefined) : GI50 value = 29.5 µM (inactive)

Field GI50 (entry CC(=O)OCC(C)C1=C(O)C(=O)C2(C)C/C=C(/C)CC/C=C(\C)CCC(O)C(C)CCC12 (centres undefined) ) reads 18 µM (inactive)

* * *

- Tested on: K562
- Assay Notes: NCI tumour cell line growth inhibition, 48 h
Active and inactive are the calls of the source. Cut-off read from the data, not from the text of the source: active = GI50 up to about 1.1 µM and inactive = higher.
Measured Endpoint: GI50

1) Cc1nc2c(o1)C(=O)c1ccccc1/C2=N/c1ccc(N2CCOCC2)cc1	3.28 µM (inactive)
2) C1CCC(OCc2nnn3c2CCC3)OC1 (stereo not given)	> 100 µM (inactive)
3) S=C(NCCc1ccccn1)N/N=C(\c1ccccc1)c1ccccn1	< 0.01 µM (active)

In plain terms, CCOC(=O)C1(Cc2ccccc2)Cc2cc3c(cc2C1)CCC3 has a documented GI50 of 22.5 µM (inactive)

So for CC(C)[Si](OC12CCC(CC1O)CC2C(=O)O)(C(C)C)C(C)C (stereo not given) , the logged GI50 turned out to be 31.6 µM (inactive)

Entry COc1cc(COC(=O)NC(Cc2cccs2)C(=O)O)c([N+](=O)[O-])cc1OC (stereo not given) ; GI50 = > 100 µM (inactive)

Record Cc1cc2c(c(N)c1C)C(=O)c1ccccc1C2=O . Reported GI50: > 100 µM (inactive)

GI50 measured on CCCCCCCCCCCC(=O)OCCOCCOCCOCCOCCOC(=O)CCCCCCCCCCC = > 100 µM (inactive)

In plain terms, COc1ccc(-c2c3c(n(C4OC(COC(C)=O)C(OC(C)=O)C(OC(C)=O)C4OC(C)=O)c(=S)c2C#N)CCCC3)cc1 (stereo not given) has a documented GI50 of 65.6 µM (inactive)

Lab book: GI50 of CCOP(=O)(OCC)C1C(CO)OC(n2ccc(=O)[nH]c2=O)C1O (stereo not given) noted as > 100 µM (inactive)

* * *

- Tested on: OVCAR-5
- Assay Notes: NCI tumour cell line growth inhibition, 48 h
Activity calls are given as the source filed them. No stated cut-off is given here; in the data, active = GI50 up to about 1.1 µM and inactive = higher.
Measured Endpoint: GI50

# count of solved cases: 3
1) NS(=O)(=O)c1cccc(NC(=S)NC(=O)Nc2ccc(Cl)c(Cl)c2)c1	25 µM (inactive)
2) C=C(C)C12CC(COC(=O)c3ccccc3)C34OC5(OC1C3C1OC1(CO)C(O)C1(O)C(OC(=O)c3ccccc3)C(C)C(C(C)CCCCCCC5O)C14)O2 (centres undefined)	88.7 µM (inactive)
3) Cc1ccc(NCC2CC/C(=C\c3ccc(Cl)cc3)C2=O)cc1 (centres undefined)	22 µM (inactive)

Consider the additional molecule presented here.
GI50 measured on C=C1C(=O)O[C@@H]2C[C@@H]3[C@]4(CC[C@]5(C)[C@@H]([C@H](C)CC/C=C(\C)C=O)CC[C@@]35C)C[C@]4(CCC(=O)OC)[C@H]12 = 2.16 µM (inactive)
